Answer each item with its documented growth.
# Test system: SK-MEL-5 melanoma
# PROTOCOL: NCI-60 one-dose screen, 48 h (100 = growth as untreated, 0 = no growth, -100 = all killed)
# STATED CONDITIONS: 10 µM unless noted
This is part of a sample that, as a whole, favours compounds with a hit. Of some 83,000 tested, about 20% had one in any assay. Calls of active or inactive are those of the source. How the source made its calls: active means growth percent below 10; inactive means the rest.

Can you share its growth? I mean this molecule: O=C1Nc2cc(-c3ccc(O)cc3)ccc2/C1=C/c1ccc[nH]1
-17.3% (active)

Can you share its growth? I mean this molecule: Cc1cc(C)nc(SC2=C(Nc3cccc(Cl)c3C)C(=O)N(Cc3ccccc3)C2=O)n1
64.3% [30 µM] (inactive)

Can you share its growth? I mean this molecule: COc1ccc(S(=O)(=O)N2CCCCCC2)cc1NC(=O)c1[nH]c(C)c2c1CCCCC2=O
-43.8% (active)

Can you share its growth? I mean this molecule: CN1CCN(c2ccc3nc(-c4ccc(OCCCCN5CCN(CCCCN6C(=O)c7cccc8cccc(c78)C6=O)CC5)cc4)[nH]c3c2)CC1
69.1% (inactive)

Can you share its growth? I mean this molecule: Cc1[nH]c(-c2cc(N)ccc2Cl)c2c1C(=O)CCCC2
1.73% (active)

Can you share its growth? I mean this molecule: O=C1c2ccccc2C(=O)c2c(N=Nc3[nH]c(=S)[nH]c3O)cccc21
13.8% (inactive)

Can you share its growth? I mean this molecule: O=C(/C=C/c1ccc(C(F)(F)F)cc1)Nc1ccc(C=C2c3ccccc3C(=O)c3ccccc32)cc1
44.7% (inactive)

Can you share its growth? I mean this molecule: COc1cccc(-c2nn(C(C)(C)C)cc2-c2ccnc(NCCCNS(=O)(=O)c3cccc4ccccc34)c2)c1
100% (inactive)

Can you share its growth? I mean this molecule: CCOc1cc2c(cc1OCC)C(c1cc(OC)c(O)cc1Cl)NCC2 (stereo not drawn)
88.6% (inactive)

Can you share its growth? I mean this molecule: COc1ccc(S(=O)(=O)N2CCCCC2)cc1NC(=O)c1[nH]c(C)c2c1CCCCC2=O
-24.4% (active)

Can you share its growth? I mean this molecule: CN1CCN(c2ccc(Nc3c4ccccc4nc4ccccc34)cc2)CC1
102% (inactive)

Can you share its growth? I mean this molecule: COc1cccc(-c2nc3sccn3c2-c2ccnc(NCCNS(=O)(=O)c3ccccc3)c2)c1
-39.3% (active)

Can you share its growth? I mean this molecule: COC(=O)c1cccc(NC(=O)c2ccc(-c3cccc(N)c3)o2)c1
81.8% (inactive)

* * *

# System: SK-OV-3 ovarian
# PROTOCOL: NCI-60 one-dose screen, 48 h
# STATED CONDITIONS: 10 µM unless noted
Compounds without any hit were thinned out: in the full panel of roughly 83,000, 20% have a hit. Active and inactive are the calls of the source. The calls were made as follows: active = growth percent below 10; inactive = the rest.
Give one outcome, nothing more. List: true (1) = active, false (0) = inactive

Record request — test call for COc1cc2c(cc1OC)C(Sc1ccc(SC)cc1)c1c(nc(N)c(C#N)c1N)O2 (stereo unspecified)
true (1)

Record request — test call for O=Nc1c(O)c(Cl)cc2ccccc12
false (0)

Record request — test call for Clc1ccc2c(NCCNc3nc(N4CCCCC4)nc4ccccc34)ccnc2c1
true (1)

Record request — test call for CN(C)[C@@H]1C(=O)C(C(=O)NCc2nc3[nH]cnc(=S)c3[nH]2)=C(O)[C@@]2(O)C(=O)C3=C(O)c4c(O)cccc4[C@@](C)(O)[C@H]3C[C@@H]12
false (0)

Record request — test call for C=CC(=O)Nc1cccc(-c2nc(SC)nc(NCc3ccccc3)c2C#N)c1
false (0)

Record request — test call for COc1ccc(-c2cc(Nc3ccnc(N4CCOCC4)n3)on2)cc1
false (0)

Record request — test call for COc1cc(-c2nn(-c3ccc(Br)cc3)cc2C(=O)O)ccc1O
false (0)

Record request — test call for COC(=O)[C@]12CCC(C)(C)C[C@H]1[C@H]1C(=O)C[C@@H]3[C@@]4(C)c5c([nH]c6ccccc6c5=O)C(C)(C)[C@@H]4CC[C@@]3(C)[C@]1(C)CC2
false (0)

Record request — test call for COc1ccc(N=Nc2nccs2)c(O)c1
false (0)

Record request — test call for CCNC(=O)Oc1ccc(/C(=C(\C)c2ccc(Cl)cc2)c2ccc(OCCN3CCCCC3)cc2)cc1
false (0)

Record request — test call for COc1cc(-c2nc3ccccc3[nH]2)ccc1OCc1nnc(-c2ccc(CC(C)C)cc2)o1
false (0)
